Substrate: NC(=O)N[C@@H](O)C(=O)O
Experiment Notes: purified protein
Type: biochemical, Escherichia coli
Experimental Conditions: 3 mM NAD+ (saturating), 30 °C, value in parentheses is standard error, His-tag kept
Listed below: kcat/Km values for each entry.

Protein: (S)-ureidoglycolate dehydrogenase (AllD) (Escherichia coli K-12; D141N) (protein, full length, modified pET28b with N-terminal His-tag and TEV site, expressed in E. coli BL21(DE3); tag cut for crystals, kept on mutant enzymes for kinetics; homodimer) MKISRETLHQLIENKLCQAGLKREHAATVAEVLVYADARGIHSHGAVRVEYYAERISKGGTNREPEFRLEETGPCSAILHADNAAGQVAAKMGMEHAIKTAQQNGVAVVGISRMGHSGAISYFVQQAARAGFIGISMCQSNPMVVPFGGAEIYYGTNPLAFAAPGEGDEILTFDMATTVQAWGKVLDARSRNMSIPDTWAVDKNGVPTTDPFAVHALLPAAGPKGYGLMMMIDVLSGVLLGLPFGRQVSSMYDDLHAGRNLGQLHIVINPNFFSSSELFRQHLSQTMRELNAITPAPGFNQVYYPGQDQDIKQRKAAVEGIEIVDDIYQYLISDALYNTSYETKNPFAQ
Endpoint Unit: M⁻¹ s⁻¹
kcat/Km: 340

Protein: (S)-ureidoglycolate dehydrogenase (AllD) (Escherichia coli K-12; R259A) (protein, full length, modified pET28b with N-terminal His-tag and TEV site, expressed in E. coli BL21(DE3); tag cut for crystals, kept on mutant enzymes for kinetics; homodimer) MKISRETLHQLIENKLCQAGLKREHAATVAEVLVYADARGIHSHGAVRVEYYAERISKGGTNREPEFRLEETGPCSAILHADNAAGQVAAKMGMEHAIKTAQQNGVAVVGISRMGHSGAISYFVQQAARAGFIGISMCQSDPMVVPFGGAEIYYGTNPLAFAAPGEGDEILTFDMATTVQAWGKVLDARSRNMSIPDTWAVDKNGVPTTDPFAVHALLPAAGPKGYGLMMMIDVLSGVLLGLPFGRQVSSMYDDLHAGANLGQLHIVINPNFFSSSELFRQHLSQTMRELNAITPAPGFNQVYYPGQDQDIKQRKAAVEGIEIVDDIYQYLISDALYNTSYETKNPFAQ
Endpoint Unit: M⁻¹ s⁻¹
kcat/Km: 1040
